Dmax values for the compounds below.
Target: SMARCA2-HiBiT (Homo sapiens)
Construct: SMARCA2-HiBiT knock-in Hela monoclonal cell (CS302366); host or cells: HeLa monoclonal knock-in line (CRISPR HiBiT knock-in at the endogenous locus, heterozygous)
Sequence (P51531 whole entry): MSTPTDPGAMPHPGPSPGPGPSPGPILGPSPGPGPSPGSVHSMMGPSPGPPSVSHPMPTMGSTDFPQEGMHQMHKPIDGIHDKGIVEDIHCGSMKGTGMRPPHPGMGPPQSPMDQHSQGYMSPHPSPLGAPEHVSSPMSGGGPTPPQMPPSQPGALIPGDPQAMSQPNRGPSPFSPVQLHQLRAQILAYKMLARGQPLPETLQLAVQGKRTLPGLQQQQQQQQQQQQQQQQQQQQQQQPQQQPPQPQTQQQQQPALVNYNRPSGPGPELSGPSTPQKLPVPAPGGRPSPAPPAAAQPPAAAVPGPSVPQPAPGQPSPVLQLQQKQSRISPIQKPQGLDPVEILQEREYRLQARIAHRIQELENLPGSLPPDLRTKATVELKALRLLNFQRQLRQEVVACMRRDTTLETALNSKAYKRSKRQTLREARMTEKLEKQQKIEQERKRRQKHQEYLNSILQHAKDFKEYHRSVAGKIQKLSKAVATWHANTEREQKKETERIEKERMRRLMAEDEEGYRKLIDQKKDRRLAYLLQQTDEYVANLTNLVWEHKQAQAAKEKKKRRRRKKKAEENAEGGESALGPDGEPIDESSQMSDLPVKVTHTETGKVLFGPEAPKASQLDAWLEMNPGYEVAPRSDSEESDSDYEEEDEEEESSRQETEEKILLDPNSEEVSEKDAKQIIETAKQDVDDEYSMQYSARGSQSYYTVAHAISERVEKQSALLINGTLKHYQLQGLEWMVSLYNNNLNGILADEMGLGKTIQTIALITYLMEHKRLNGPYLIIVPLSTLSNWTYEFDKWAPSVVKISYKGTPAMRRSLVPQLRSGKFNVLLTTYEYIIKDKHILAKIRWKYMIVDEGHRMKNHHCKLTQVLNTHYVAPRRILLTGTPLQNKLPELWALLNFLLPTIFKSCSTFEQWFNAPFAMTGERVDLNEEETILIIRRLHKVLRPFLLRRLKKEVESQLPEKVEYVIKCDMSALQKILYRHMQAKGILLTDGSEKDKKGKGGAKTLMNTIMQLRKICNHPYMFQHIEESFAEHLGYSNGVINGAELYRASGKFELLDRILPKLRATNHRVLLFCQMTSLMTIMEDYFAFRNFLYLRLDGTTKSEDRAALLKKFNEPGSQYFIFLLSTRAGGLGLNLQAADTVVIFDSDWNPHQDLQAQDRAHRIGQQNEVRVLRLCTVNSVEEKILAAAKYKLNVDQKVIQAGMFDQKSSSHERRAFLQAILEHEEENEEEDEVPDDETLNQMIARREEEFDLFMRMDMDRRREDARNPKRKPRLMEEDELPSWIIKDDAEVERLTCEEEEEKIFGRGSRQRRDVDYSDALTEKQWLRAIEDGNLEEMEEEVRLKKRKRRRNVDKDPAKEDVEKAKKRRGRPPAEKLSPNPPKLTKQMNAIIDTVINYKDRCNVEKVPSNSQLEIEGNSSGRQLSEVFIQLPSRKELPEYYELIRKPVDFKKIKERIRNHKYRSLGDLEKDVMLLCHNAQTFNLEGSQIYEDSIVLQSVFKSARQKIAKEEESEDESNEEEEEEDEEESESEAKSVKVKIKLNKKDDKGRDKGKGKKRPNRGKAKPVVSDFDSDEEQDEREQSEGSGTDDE
Experiment: SMARCA2 HiBiT degradation assay in HeLa cells
Assay type: cell-based
Conditions: HeLa, 18 hours incubation, read-out: HeLa-HiBit-SM2 Dmax (%)

What Dmax value was documented for this compound, CN(CCN1CCC(CN2CCN3c4cc(-c5ccccc5O)nnc4NC[C@H]3C2)CC1)c1ccc2c(c1)C(=O)N(C1CCC(=O)NC1=O)C2=O (some centres unmarked) ?
75 to 85%

Would you kindly share the measured Dmax for O=C1CCC(N2Cc3ccc(N4CCC(CN5C[C@@H]6[C@H](C5)[C@H]6CN5CCN6c7cc(-c8ccccc8O)nnc7NC[C@H]6C5)CC4)cc3C2=O)C(=O)N1 (some centres unmarked) ?
> 85%
